Every entry's value here was drawn from ChEMBL document CHEMBL1926507.

# EXPERIMENTAL_SYSTEM: 17-beta-hydroxysteroid dehydrogenase type 1 (Homo sapiens)
# Sequence (P14061 whole entry): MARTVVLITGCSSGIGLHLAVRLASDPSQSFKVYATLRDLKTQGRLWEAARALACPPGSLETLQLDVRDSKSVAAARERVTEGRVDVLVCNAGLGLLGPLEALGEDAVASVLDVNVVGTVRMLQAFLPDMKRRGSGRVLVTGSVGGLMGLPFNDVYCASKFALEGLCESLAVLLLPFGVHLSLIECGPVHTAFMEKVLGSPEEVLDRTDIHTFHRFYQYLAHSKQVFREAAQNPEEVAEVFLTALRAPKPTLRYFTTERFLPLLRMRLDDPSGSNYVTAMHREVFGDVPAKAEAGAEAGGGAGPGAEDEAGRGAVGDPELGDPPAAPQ
# ASSAY_INFO: Inhibition of human cytosolic 17beta-HSD1 in cell-free system using [2,4,6,7-3H]E1 as substrate after 10 mins by radioflow detector
ENDPOINT_LABEL: IC50 (µM)

>>> print(df.to_string())
                            molecule_smiles  recorded_measurement
0  O=C(c1ccc(F)c(O)c1)c1ccc(-c2ccc(O)c(Cl)c2)cn1                  1.01
1  O=C(c1ccc(-c2ccc(O)cc2Cl)cc1)c1cccc(O)c1                  1.76
2  O=C(c1ccc(-c2ccc(O)c(F)c2)cc1)c1cccc(O)c1                  2.43
3  Cc1cc(-c2cccc(C(=O)c3ccc(F)c(O)c3)n2)ccc1O                  22.4
4  Cc1cc(-c2ccc(C(=O)c3cc(O)cc(F)c3)cc2)ccc1O                 0.159
5  O=C(c1ccc(-c2ccc(O)c(Cl)c2)cc1)c1ccc(F)c(O)c1                 0.053
